Provenance of the data: PubChem BioAssay (NCATS)

experiment description: qHTS of pediatric cancer cell lines to identify multiple opportunities for drug repurposing: Primary screen for control Hh wild type fibroblast cells (AID 1347106); further: nearly all actives have a fitted effect of over 55% in size
condition summary: Hh wild-type fibroblast viability, CellTiter-Glo luminescence, 48 h; series mostly up to 46 µM
Records with an inconclusive call do not appear. Active and inactive are the calls of the source. The call rests on the fitted dose curve; in most records, active means well fitted cell-killing curve with a large enough effect; inconclusive means small, poorly fitted or top-dose-only effect; inactive means flat fitted curve, though single readings scatter.
Labels: active, inactive

>>> assigned_class("O=C(CCN1CCC(c2ccccc2)C1)c1ccc2c(c1)OCCO2 (stereo not given)")
"inactive"
>>> assigned_class("CC(=O)O[C@]1(C(C)=O)CC[C@H]2[C@@H]3C[C@H](C)C4=CC(=O)CC[C@]4(C)[C@H]3CC[C@@]21C")
"inactive"
>>> assigned_class("C[C@@H]1C[C@H]2[C@@H]3CCC4=CC(=O)C=C[C@]4(C)[C@@]3(F)[C@@H](O)C[C@]2(C)[C@H]1C(=O)CO")
"inactive"
>>> assigned_class("C[C@]12C=CC(=O)C=C1CC[C@@H]1[C@@H]2[C@@H](O)C[C@@]2(C)[C@H]1CC[C@]2(O)C(=O)CO")
"inactive"
>>> assigned_class("CCCCOc1ccc(C(=O)CCN2CCCCC2)cc1")
"inactive"
>>> assigned_class("CCC(=O)c1c(O)cc(O)cc1O")
"inactive"
>>> assigned_class("CN1CCC(=C2c3ccccc3Sc3ccccc32)CC1")
"inactive"
>>> assigned_class("CC(O)C(=O)O (stereo not given)")
"inactive"
>>> assigned_class("C[C@]12CCC(=O)C=C1CC[C@H]1[C@@H]3CC[C@](O)(C(=O)CO)[C@@]3(C)C[C@H](O)[C@@]12F")
"inactive"
>>> assigned_class("Cc1ccnc(NS(=O)(=O)c2ccc(N)cc2)n1")
"inactive"
>>> assigned_class("CC(=O)Nc1c(I)cc(I)c(C(=O)O)c1I")
"inactive"
>>> assigned_class("CCN(CCCc1ccccc1)CCCc1ccccc1")
"inactive"
>>> assigned_class("CC(=O)Oc1ccc(C(c2ccc(OC(C)=O)cc2)c2ccccn2)cc1")
"inactive"
>>> assigned_class("CCOc1ccc2nc3cc(N)ccc3c(N)c2c1")
"inactive"
>>> assigned_class("CC(=O)[C@H]1CC[C@H]2[C@@H]3C[C@H](C)C4=CC(=O)CC[C@]4(C)[C@H]3[C@@H](O)C[C@]12C")
"inactive"
>>> assigned_class("Oc1ccc(O)cc1")
"inactive"
>>> assigned_class("C/C=C(/C(=C/C)c1ccc(O)cc1)c1ccc(O)cc1")
"inactive"
>>> assigned_class("CNC(=O)CN(CCN(CCN(CC(=O)[O-])CC(=O)NC)CC(=O)[O-])CC(=O)[O-].O.[Gd+3]")
"inactive"
>>> assigned_class("C[C@]12CCC(=O)C=C1[C@@H]1C[C@@H]1[C@H]1[C@@H]3[C@@H]4C[C@@H]4[C@@]4(CCC(=O)O4)[C@@]3(C)CC[C@@H]12")
"inactive"
>>> assigned_class("C[C@@H](CN(C)C)CN1c2ccccc2Sc2ccccc21")
"inactive"
>>> assigned_class("NCCCC[C@H](N[C@@H](CCc1ccccc1)C(=O)O)C(=O)N1CCC[C@H]1C(=O)O")
"inactive"
>>> assigned_class("CN=C(NC#N)Nc1ccc(C2=NNC(=O)CC2C)cc1 (stereo not given)")
"inactive"
>>> assigned_class("CN(C)/N=N/c1nc[nH]c1C(N)=O")
"inactive"
>>> assigned_class("CC(Cc1cccc(C(F)(F)F)c1)NCCOC(=O)c1ccccc1 (stereo not given)")
"inactive"
>>> assigned_class("Cc1cc(O)c(C(C)C)cc1Cl")
"inactive"
>>> assigned_class("CN1CCC[C@@H]1c1cccnc1")
"inactive"
>>> assigned_class("Cc1ccc(Nc2c(F)cccc2Cl)c(CC(=O)O)c1")
"inactive"
>>> assigned_class("CN(C)CCOc1ccccc1Cc1ccccc1")
"inactive"
>>> assigned_class("COCc1c(C(C)C)nc(C(C)C)c(/C=C/[C@@H](O)C[C@@H](O)CC(=O)O)c1-c1ccc(F)cc1")
"inactive"
>>> assigned_class("CCCCOc1ccc(OCCCN2CCOCC2)cc1")
"inactive"
>>> assigned_class("NC[C@H]1O[C@H](O[C@H]2[C@H](O)[C@@H](O[C@H]3O[C@H](CO)[C@@H](O)[C@H](N)[C@H]3O)[C@H](N)C[C@@H]2N)[C@H](N)[C@@H](O)[C@@H]1O")
"inactive"
>>> assigned_class("Cc1onc(-c2c(Cl)cccc2Cl)c1C(=O)N[C@@H]1C(=O)N2[C@@H]1SC(C)(C)[C@@H]2C(=O)O")
"inactive"
>>> assigned_class("CN1C(CCl)Nc2cc(Cl)c(S(N)(=O)=O)cc2S1(=O)=O (stereo not given)")
"inactive"
>>> assigned_class("O=C(CCCN1CCC(O)(c2ccc(Br)cc2)CC1)c1ccc(F)cc1")
"inactive"
>>> assigned_class("NC(CS)C(=O)O (stereo not given)")
"inactive"
>>> assigned_class("CC(Cc1ccccc1)(NC(=O)CN)c1ccccc1 (stereo not given)")
"inactive"
>>> assigned_class("CCCCCCc1ccc(O)cc1O")
"inactive"
>>> assigned_class("CCCCCCCCCCCCCCNCCO")
"inactive"
>>> assigned_class("Oc1ccc(Cl)cc1Sc1cc(Cl)ccc1O")
"inactive"
>>> assigned_class("CC(O)(P(=O)(O)O)P(=O)(O)O")
"inactive"
>>> assigned_class("CC(=O)OCC(=O)NCCCOc1cccc(CN2CCCCC2)c1")
"inactive"
>>> assigned_class("Nc1ccn([C@@H]2O[C@H](CO)[C@@H](O)C2(F)F)c(=O)n1")
"inactive"
>>> assigned_class("Oc1ccc(Cl)c2cccnc12")
"active"
>>> assigned_class("O=C1OCCN1/N=C/c1ccc([N+](=O)[O-])o1")
"inactive"
>>> assigned_class("Cc1cc(=O)n(-c2ccccc2)n1C")
"inactive"
